molecular target: Aurora B (Homo sapiens, UniProt Q96GD4); construct: Active Aurora B enzyme (recombinant residues 1-344); assay: Aurora B enzyme assay (time-resolved fluorescence, histone H3 peptide); settings: 1 mM ATP, 1 hour
Sequence (Q96GD4 whole entry, the tested form may be a part): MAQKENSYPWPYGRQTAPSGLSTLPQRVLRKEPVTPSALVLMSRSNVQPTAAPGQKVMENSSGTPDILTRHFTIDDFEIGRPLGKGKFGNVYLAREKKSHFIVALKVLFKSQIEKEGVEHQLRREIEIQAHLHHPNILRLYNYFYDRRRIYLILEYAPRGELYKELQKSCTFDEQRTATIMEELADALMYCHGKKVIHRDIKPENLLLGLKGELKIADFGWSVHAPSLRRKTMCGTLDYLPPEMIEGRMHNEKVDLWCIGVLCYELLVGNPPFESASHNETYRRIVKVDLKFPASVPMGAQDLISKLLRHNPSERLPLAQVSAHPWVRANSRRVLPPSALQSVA
Sequence (Q9NQS7 826-918 partner limits assumed): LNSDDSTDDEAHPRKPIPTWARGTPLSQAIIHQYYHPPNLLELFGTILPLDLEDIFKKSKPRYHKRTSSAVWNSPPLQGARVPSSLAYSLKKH
pIC50: −log10 of the molar value.
Let's look at some compounds and their measured pIC50.

Some entries whose results are on file:
[
  {
    "molecule": "Cc1cccc(NC(=O)Nc2ccc(-c3ccc4c(-c5ccsc5)n[nH]c4c3)cc2)c1",
    "pIC50": "< 4.90"
  },
  {
    "molecule": "Cc1cccc(NC(=O)Nc2cccc(-c3ccc4c(-c5cccnc5)n[nH]c4c3)c2)c1",
    "pIC50": "< 4.90"
  },
  {
    "molecule": "Cn1nccc1-c1n[nH]c2cc(-c3ccc(NC(=O)Nc4cccc(F)c4)cc3)ccc12",
    "pIC50": "< 4.90"
  }
]

Asked: # query: pIC50 of entry "O=C(Nc1ccc(-c2ccc3c(-c4cnn(CCO)c4)n[nH]c3c2)cc1)Nc1cccc(C(F)(F)F)c1"
Given back: 6.87

###

biological target: KDR (Homo sapiens, UniProt P35968); experiment: KDR HTRF in vitro kinase assay; type: biochemical; parameters: purified enzyme (His6-KDR 789-1354, MW 63 kD); conditions: 1 mM ATP, 60 minutes
Sequence (P35968 789-1354): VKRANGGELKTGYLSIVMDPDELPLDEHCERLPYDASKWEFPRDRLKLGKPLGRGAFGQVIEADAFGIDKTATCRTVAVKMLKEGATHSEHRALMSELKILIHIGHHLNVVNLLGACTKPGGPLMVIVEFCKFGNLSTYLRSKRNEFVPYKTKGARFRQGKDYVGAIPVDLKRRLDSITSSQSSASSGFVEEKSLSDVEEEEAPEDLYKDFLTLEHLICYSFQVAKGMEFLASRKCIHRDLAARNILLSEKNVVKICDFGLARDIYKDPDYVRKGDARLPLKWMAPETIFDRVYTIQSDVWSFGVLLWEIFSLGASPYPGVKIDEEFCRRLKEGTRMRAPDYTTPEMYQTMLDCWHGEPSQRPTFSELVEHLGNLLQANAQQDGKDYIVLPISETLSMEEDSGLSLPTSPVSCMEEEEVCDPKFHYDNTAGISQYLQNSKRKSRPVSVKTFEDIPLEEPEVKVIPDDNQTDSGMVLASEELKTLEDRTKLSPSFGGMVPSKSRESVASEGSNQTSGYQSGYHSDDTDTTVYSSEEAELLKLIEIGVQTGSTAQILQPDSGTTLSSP
quantityMeasured: IC50 (nM)
Numeric only. Scale: nM

Asked: Quick one: IC50 of "Cn1cc(-c2n[nH]c3cc(-c4ccc(CNC(=O)c5cccc(F)c5)cc4)ccc23)cn1" ?
Given back: 1790

###

// reported pIC50 for each item listed
biological target: KDR (Homo sapiens); assay: KDR HTRF in vitro kinase assay; format: biochemical; set-up: purified enzyme (His6-KDR 789-1354, MW 63 kD); details: 1 mM ATP, 60 minutes
// pIC50 here means minus log10 of the molar concentration (mol/L)

[
  {
    "molecule": "O=C(Nc1ccc(-c2ccc3c(-c4cnn(CCO)c4)n[nH]c3c2)cc1)Nc1cccc(C(F)(F)F)c1",
    "experimentalTarget": "KDR (Homo sapiens)",
    "quantityMeasured": "pIC50",
    "reportedMeasurement": 7.68
  },
  {
    "molecule": "Cc1cccc(NC(=O)Nc2ccc(-c3ccc4c(-c5ccc[nH]5)n[nH]c4c3)cc2)c1",
    "experimentalTarget": "KDR (Homo sapiens)",
    "quantityMeasured": "pIC50",
    "reportedMeasurement": 6.54
  },
  {
    "molecule": "Cn1cc(-c2n[nH]c3cc(-c4ccc(NC(=O)Nc5cccc(F)c5)cc4)ccc23)cn1",
    "experimentalTarget": "KDR (Homo sapiens)",
    "quantityMeasured": "pIC50",
    "reportedMeasurement": 7.26
  }
]

// next item, pIC50 requested
Asked: Query (molecule): "CCCn1cc(-c2n[nH]c3cc(-c4ccc(NC(=O)Nc5cccc(F)c5)cc4)ccc23)cn1" ; field requested: pIC50
Given back: 6.66

Every entry's value here was drawn from patent US8293738B2.
